B1: CPEB3 Ribozyme (parent)
chain: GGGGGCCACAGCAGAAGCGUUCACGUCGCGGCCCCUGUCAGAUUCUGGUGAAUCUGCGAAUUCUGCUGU

- Variants of: B1
- Assay Remarks: self-cleavage, relative activity (ratio to wild type); higher = more cleavage; co-transcriptional
Value Type: self-cleavage
Lab note: record just the number, no unit beside it.

U43C U55A
0.632
C29G G65U
0.182

Which measured self-cleavage value corresponds to G25U C35G ? 0.165

Which measured self-cleavage value corresponds to C7G A60U ? 0.187

Which measured self-cleavage value corresponds to G2C G30A ? 0.0388
